B1: CPEB3 Ribozyme (parent)
chain: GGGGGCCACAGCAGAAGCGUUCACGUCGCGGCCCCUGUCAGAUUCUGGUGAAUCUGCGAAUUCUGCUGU

# Variants of: B1
# ASSAY_DETAILS: self-cleavage, relative activity (ratio to wild type); higher = more cleavage; co-transcriptional
Recorded self-cleavage for the following variants

- MUTANT_NAME: "C9U A51U"
  self-cleavage: 1
- MUTANT_NAME: "U36C G37A"
  self-cleavage: 0.335
- MUTANT_NAME: "G37U U64G"
  self-cleavage: 0.227
- MUTANT_NAME: "U38G C63G"
  self-cleavage: 0.224
- MUTANT_NAME: "G31C G68A"
  self-cleavage: 0.515
- MUTANT_NAME: "C18A U61C"
  self-cleavage: 0.158
- MUTANT_NAME: "A15G A51U"
  self-cleavage: 0.963
- MUTANT_NAME: "G19C C22U"
  self-cleavage: 0.158
- MUTANT_NAME: "C7A A42U"
  self-cleavage: 0.349
- MUTANT_NAME: "U26A C39A"
  self-cleavage: 0.477
- MUTANT_NAME: "G19A G56U"
  self-cleavage: 0.155
- MUTANT_NAME: "C18U A60C"
  self-cleavage: 0.288
- MUTANT_NAME: "G30A C34A"
  self-cleavage: 0.286
- MUTANT_NAME: "G19U A60C"
  self-cleavage: 0.18
- MUTANT_NAME: "G31C U67C"
  self-cleavage: 0.358
- MUTANT_NAME: "A16U C45U"
  self-cleavage: 0.893
- MUTANT_NAME: "G17C U55A"
  self-cleavage: 0.177
- MUTANT_NAME: "C35G U61C"
  self-cleavage: 0.257
- MUTANT_NAME: "G2C C27U"
  self-cleavage: 0.0172
- MUTANT_NAME: "G2U A40G"
  self-cleavage: 0.0279
- MUTANT_NAME: "G25C G50C"
  self-cleavage: 0.179
- MUTANT_NAME: "A59U U69A"
  self-cleavage: 0.901
